Assay: The drug is tested on Blautia hansenii strain: DSM20583 for biotransformation. The drug concentrations were measured before and after a 12-h incubation by liquid-chromatography-coupled mass spectrometry (LC–MS)
Conditions: 2 µM
quantity kind: Bacterial Biotransformation

molecule: C[C@H]1O[C@@H](O[C@H]2[C@@H](O)C[C@H](O[C@H]3[C@@H](O)C[C@H](O[C@H]4CC[C@@]5(C)[C@H](CC[C@@H]6[C@@H]5C[C@@H](O)[C@]5(C)[C@@H](C7=CC(=O)OC7)CC[C@]65O)C4)O[C@@H]3C)O[C@@H]2C)C[C@H](O)[C@@H]1O
Bacterial Biotransformation: Compound metabolized

molecule: COc1c(C)c2c(c(O)c1C/C=C(\C)CCC(=O)OCCN1CCOCC1)C(=O)OC2 [MYCOPHENOLATE MOFETIL]
Bacterial Biotransformation: Compound metabolized

molecule: CC(CN(C)C)CN1c2ccccc2CCc2ccccc21.O=C(O)/C=C\C(=O)O (stereo not drawn) [TRIMIPRAMINE MALEATE]
Bacterial Biotransformation: Compound NOT metabolized

molecule: Cc1nc(-c2ccc(OCC(C)C)c(C#N)c2)sc1C(=O)O
Bacterial Biotransformation: Compound NOT metabolized

molecule: CCOC(=O)[C@H](CCc1ccccc1)N[C@@H](C)C(=O)N1CCC[C@H]1C(=O)O.O=C(O)/C=C\C(=O)O [ENALAPRIL MALEATE]
Bacterial Biotransformation: Compound metabolized

molecule: CCc1cccc2c3c([nH]c12)C(CC)(CC(=O)O)OCC3 (stereo not drawn)
Bacterial Biotransformation: Compound NOT metabolized

molecule: CC(C)c1c(CN(C)C(C)Cc2ccccc2)n(C)n(-c2ccccc2)c1=O (stereo not drawn)
Bacterial Biotransformation: Compound metabolized

molecule: CC(Oc1c(Cl)cccc1Cl)C1=NCCN1 (stereo not drawn)
Bacterial Biotransformation: Compound metabolized

[ask] // lookup Bacterial Biotransformation for NC(=O)N1c2ccccc2CC(=O)c2ccccc21 [OXCARBAZEPINE]
[reply] Compound NOT metabolized

[ask] Same read-out for CCOC(=O)C1=C(C)NC(C)=C(C(=O)OC)C1c1cccc([N+](=O)[O-])c1 (stereo not drawn) ?
[reply] Compound metabolized

[ask] Same read-out for COc1cc2nc(N3CCN(C(=O)C4COc5ccccc5O4)CC3)nc(N)c2cc1OC.CS(=O)(=O)O (stereo not drawn) [DOXAZOSIN MESYLATE] ?
[reply] Compound metabolized

[ask] Same read-out for OC(CCN1CCCCC1)(c1ccccc1)C1CC2C=CC1C2 (stereo not drawn) ?
[reply] Compound NOT metabolized

[ask] Same read-out for O=C1[C@H](CC[C@H](O)c2ccc(F)cc2)[C@@H](c2ccc(O)cc2)N1c1ccc(F)cc1 ?
[reply] Compound NOT metabolized

----------
Conditions: bacteroides eggerthii, 12 h, 2 µM
Description: The drug is tested on Bacteroides eggerthii strain: DSM20697 for biotransformation. The drug concentrations were measured before and after a 12-h incubation by liquid-chromatography-coupled mass spectrometry (LC–MS)
quantity kind: Bacterial Biotransformation

compound: CCOc1ccccc1OCCN[C@H](C)Cc1ccc(OC)c(S(N)(=O)=O)c1.Cl [TAMSULOSIN HYDROCHLORIDE]
Bacterial Biotransformation: Compound NOT metabolized
//
compound: CC[C@@H](CO)NC(=O)[C@@H]1C=C2c3cccc4c3c(cn4C)C[C@H]2N(C)C1.O=C(O)/C=C\C(=O)O [METHYSERGIDE MALEATE]
Bacterial Biotransformation: Compound metabolized
//
compound: CCc1nc(N)nc(N)c1-c1ccc(Cl)cc1
Bacterial Biotransformation: Compound NOT metabolized
//
compound: COc1ccc2c(c1)c(CC(=O)O)c(C)n2C(=O)c1ccc(Cl)cc1
Bacterial Biotransformation: Compound NOT metabolized
//
compound: CS(=O)(=O)O.OC(CCN1CCCCC1)(c1ccccc1)c1ccccc1 [PRIDINOL METHANESULFONATE]
Bacterial Biotransformation: Compound NOT metabolized
//
compound: COC(=O)[C@H](c1ccccc1Cl)N1CCc2sccc2C1.O=S(=O)(O)O [CLOPIDOGREL BISULFATE]
Bacterial Biotransformation: Compound metabolized

[ask] // lookup Bacterial Biotransformation for COc1ccccc1OCC(O)COC(N)=O (stereo not drawn)
[reply] Compound NOT metabolized

[ask] Same read-out for COC(=O)[C@H]1[C@H]2C[C@@H]3c4[nH]c5cc(OC)ccc5c4CCN3C[C@H]2C[C@@H](OC(=O)c2cc(OC)c(OC)c(OC)c2)[C@@H]1OC ?
[reply] Compound NOT metabolized

[ask] Same read-out for CC(C)C[C@H]1C(=O)N2CCC[C@H]2[C@]2(O)O[C@](NC(=O)[C@@H]3C=C4c5cccc6[nH]c(Br)c(c56)C[C@H]4N(C)C3)(C(C)C)C(=O)N12.CS(=O)(=O)O [BROMOCRIPTINE MESYLATE] ?
[reply] Compound metabolized

[ask] Same read-out for NS(=O)(=O)c1cc2c(cc1Cl)N=C(CSCc1ccccc1)NS2(=O)=O [BENZTHIAZIDE] ?
[reply] Compound NOT metabolized

[ask] Same read-out for C=CC[C@@H]1/C=C(\C)C[C@H](C)C[C@H](OC)[C@H]2O[C@@](O)(C(=O)C(=O)N3CCCC[C@H]3C(=O)O[C@H](/C(C)=C/[C@@H]3CC[C@@H](O)[C@H](OC)C3)[C@H](C)[C@@H](O)CC1=O)[C@H](C)C[C@@H]2OC.O ?
[reply] Compound metabolized

[ask] Same read-out for Fc1ccc([C@@H]2CCNC[C@H]2COc2ccc3c(c2)OCO3)cc1 ?
[reply] Compound NOT metabolized

[ask] Same read-out for Br.COc1ccc2c(c1)[C@]13CCCC[C@@H]1[C@H](C2)N(C)CC3.O [DEXTROMETHORPHAN HYDROBROMIDE] ?
[reply] Compound NOT metabolized
